B1: TRIM39 (parent)
chain: ERDFPCPVCRKTSRYRSLRPNRQL

Variants of: B1
Assay: protein stability index of a GFP-peptide fusion (GPS, HEK-293T) (PSI 1-6); higher = more stable;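 further: lentivirally expressed fusions sorted by FACS into six bins by GFP to DsRed ratio, PSI derived from sequencing read proportions per bin multiplied by bin number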
Conditions: c terminus: a fixed tail appended
Value Kind: protein stability index

>  <Sequence Entry>
ERDFPCPVCRKTSRYLSLRPNRQL [R16L]

>  <Result Value>
1.53

$$$$
>  <Sequence Entry>
ERDFPCPVCRKTSRYRSCRPNRQL [L18C]

>  <Result Value>
2.24

$$$$
>  <Sequence Entry>
GRDFPCPVCRKTSRYRSLRPNRQL [E1G]

>  <Result Value>
1.83

$$$$
>  <Sequence Entry>
ERDFPCPVCYKTSRYRSLRPNRQL [R10Y]

>  <Result Value>
2.03

$$$$
>  <Sequence Entry>
ERDFPCPVCRHTSRYRSLRPNRQL [K11H]

>  <Result Value>
3.77

$$$$
>  <Sequence Entry>
ERDFPCPVCRKTSRYRSLYPNRQL [R19Y]

>  <Result Value>
2.12

$$$$
>  <Sequence Entry>
ERDFCCPVCRKTSRYRSLRPNRQL [P5C]

>  <Result Value>
2.9

$$$$
>  <Sequence Entry>
ERDFPCPVCRKTSRCRSLRPNRQL [Y15C]

>  <Result Value>
2.24

$$$$
>  <Sequence Entry>
ERDFPCPVCRKTSRYRSLRPNRQC [L24C]

>  <Result Value>
3.12

$$$$
>  <Sequence Entry>
ERDFPCIVCRKTSRYRSLRPNRQL [P7I]

>  <Result Value>
2.75

$$$$
>  <Sequence Entry>
ERDFPCPVCRKTSRQRSLRPNRQL [Y15Q]

>  <Result Value>
2.52

$$$$
>  <Sequence Entry>
ERKFPCPVCRKTSRYRSLRPNRQL [D3K]

>  <Result Value>
2.64

$$$$
>  <Sequence Entry>
ERDFPCPVCFKTSRYRSLRPNRQL [R10F]

>  <Result Value>
1.74

$$$$
>  <Sequence Entry>
ERDFPCPVCRKTSSYRSLRPNRQL [R14S]

>  <Result Value>
1.66

$$$$
>  <Sequence Entry>
ERGFPCPVCRKTSRYRSLRPNRQL [D3G]

>  <Result Value>
1.6

$$$$
>  <Sequence Entry>
ERDFHCPVCRKTSRYRSLRPNRQL [P5H]

>  <Result Value>
3.7

$$$$
>  <Sequence Entry>
ERLFPCPVCRKTSRYRSLRPNRQL [D3L]

>  <Result Value>
1.96

$$$$
>  <Sequence Entry>
ERDFPCPVCAKTSRYRSLRPNRQL [R10A]

>  <Result Value>
1.88

$$$$
>  <Sequence Entry>
ERVFPCPVCRKTSRYRSLRPNRQL [D3V]

>  <Result Value>
2.48

$$$$
>  <Sequence Entry>
ERDFPCPVCRKTWRYRSLRPNRQL [S13W]

>  <Result Value>
2.39

$$$$
>  <Sequence Entry>
ERDFPCPVCRKTSRYRSHRPNRQL [L18H]

>  <Result Value>
2.68

$$$$
>  <Sequence Entry>
ERDFQCPVCRKTSRYRSLRPNRQL [P5Q]

>  <Result Value>
1.18

$$$$
>  <Sequence Entry>
ERDFPCPVCVKTSRYRSLRPNRQL [R10V]

>  <Result Value>
2.04

$$$$
>  <Sequence Entry>
ERDFPCPVCRKTSCYRSLRPNRQL [R14C]

>  <Result Value>
2.85

$$$$
>  <Sequence Entry>
ERDFPCPVCRKTSRYPSLRPNRQL [R16P]

>  <Result Value>
2.1

$$$$
>  <Sequence Entry>
ERDFPCPVCNKTSRYRSLRPNRQL [R10N]

>  <Result Value>
2.22

$$$$
>  <Sequence Entry>
ERDFPCPVCRKTSRYRDLRPNRQL [S17D]

>  <Result Value>
1.85

$$$$
>  <Sequence Entry>
ERDFPCPVCRKTQRYRSLRPNRQL [S13Q]

>  <Result Value>
2.1

$$$$
>  <Sequence Entry>
ERDFPCPVHRKTSRYRSLRPNRQL [C9H]

>  <Result Value>
2.56

$$$$
>  <Sequence Entry>
ERDFPCPVCRKTSRYRSLRPNIQL [R22I]

>  <Result Value>
1.93

$$$$
>  <Sequence Entry>
ERDFPCPVCRKTSRGRSLRPNRQL [Y15G]

>  <Result Value>
1.83

$$$$
>  <Sequence Entry>
ERDFPCPVCRKSSRYRSLRPNRQL [T12S]

>  <Result Value>
2.17

$$$$
>  <Sequence Entry>
ERDFPCPVCRKTSRYISLRPNRQL [R16I]

>  <Result Value>
1.24

$$$$

This collection of values is drawn from the supplement of paper PMC10567573.
